test system: adherence of JY-8 cells (expressing LFA-1) to immobilized ICAM-1; experiment: ICAM-1/JY-8 Cell Adhesion Assay; format: cell-based, human; details: Homo sapiens, JY-8, JY-8 cells on immobilized ICAM-1/Ig
Recorded endpoint: pIC50
Give bare numbers, as −log10 of the molar value.

O=C(/C=C/c1ccc(Sc2ccc(Cl)cc2Cl)c([N+](=O)[O-])c1)NCCCN1CCCC1=O :: 6.52

For each of the compounds below, note its pIC50.
1. CC(=O)N1CCN(C(=O)/C=C/c2ccc(Sc3cccc(Cl)c3Cl)c([N+](=O)[O-])c2)CC1
2. O=C(/C=C/c1ccccc1Sc1ccc(Cl)cc1Cl)NCCCCCCO
3. O=C(O)C1CCN(C(=O)/C=C/c2ccc(Sc3ccc(Cl)cc3Cl)c(Cl)c2)CC1
4. CCN(CC)C(=O)N1CCN(C(=O)/C=C/c2ccc(Sc3ccc(Cl)cc3Cl)c([N+](=O)[O-])c2)CC1

Result:
1: 7.15; 2: 5.68; 3: 6.28; 4: 6.96

For each of the compounds below, note its pIC50.
1. O=C(/C=C/c1ccc(Sc2ccc(Cl)cc2Cl)c(Cl)c1)NCCO
2. CC(=O)N1CCN(C(=O)/C=C/c2ccc(Sc3ccc(Br)cc3)c([N+](=O)[O-])c2)CC1

Result:
1: 5.60; 2: 6.37

Query: Recorded pIC50 of O=C(O)C(=O)N1CCN(C(=O)/C=C/c2ccc(Sc3ccc(Cl)cc3Cl)c([N+](=O)[O-])c2)CC1 , please.
Result: 7.00

---

tested on: adherence of JY-8 cells (expressing LFA-1) to immobilized ICAM-1; assay: ICAM-1/JY-8 Cell Adhesion Assay; type: cell-based, human; conditions: Homo sapiens, JY-8, JY-8 cells on immobilized ICAM-1/Ig
Please provide measured IC50 for the entries that follow.
Numbers only, in nM.

For each of the compounds below, note its IC50.
1. O=C(O)C1CCCN(C(=O)/C=C/c2ccc(Sc3ccc(Cl)cc3Cl)c(Cl)c2)C1 (stereo not drawn)
2. CC(=O)N1CCN(C(=O)/C=C/c2ccc(Sc3ccccc3C(C)C)c([N+](=O)[O-])c2)CC1

Result:
[3300, 10]

Query: Recorded IC50 of O=C(/C=C/c1ccc(Sc2ccc(Cl)cc2Cl)c(Cl)c1)NCCCN1CCCC1=O , please.
Result: 660

---

Please provide measured % inhibition @ 4 μM for the entries that follow.
Biological target: interaction between the integrin LFA-1 and its adhesion partner ICAM-1 (Homo sapiens)
Construct: Recombinant LFA-1 (100 μL of 0.7 μg/ml mL, ICOS Corporation) in D-PBS; purchased ICOS Corporation
Assay: ICAM-1/LFA-1 Biochemical Interaction Assay
Assay type: binding
Conditions: 4 μM compound; recombinant LFA-1, biotinylated ICAM-1/Ig
Description: Compounds that antagonize the interaction between ICAM-1 and LFA-1 can be identified, and their activities quantitated, using both biochemical and cell-based adhesion assays. A primary biochemical assay measures the ability of the compound in question to block the interaction between the integrin LFA-1 and its adhesion partner ICAM-1, as described below: ICAM-1/LFA-1 Biochemical Interaction Assay […]

For each of the molecules below, note its % inhibition @ 4 μM.
1. O=C(/C=C/c1ccc(Sc2ccccc2CO)c(Cl)c1)N1CCOCC1 [Example 11]
2. O=C(/C=C/c1ccc(Sc2ccccc2Br)c(Cl)c1)N1CCc2ccccc2C1 [Example 25]
3. O=C(/C=C/c1ccc(Sc2ccccc2Br)c(Cl)c1)N1CCC(n2c(=O)[nH]c3ccccc32)CC1 [Example 24]
4. O=C(/C=C/c1ccc(Sc2ccccc2Br)c(Cl)c1)N1CCCCC1CO (centres unmarked) [Example 16]
5. CC(=O)NC1CCN(C(=O)/C=C/c2ccc(Sc3ccccc3Br)c(Cl)c2)C1 (centres unmarked) [Example 17]
6. O=C(/C=C/c1ccc(Sc2ccc(Cl)cc2Cl)c(Cl)c1)N1CCN(CCOCCO)CC1 [Example 14]
7. CC(C)NC(=O)CN1CCN(Cc2ccccc2Sc2ccc(/C=C/C(=O)N3CCOCC3)cc2Cl)CC1 [Example 55]

Result:
1: 87%; 2: 82%; 3: 80%; 4: 86%; 5: 84%; 6: 82%; 7: 82%

Query: Recorded % inhibition @ 4 μM of O=C(/C=C/c1ccc(Sc2ccccc2Br)c(Cl)c1)N1CCOCC1 [Example 12] , please.
Result: 90%

---

biological target: interaction between the integrin LFA-1 and its adhesion partner ICAM-1 (Homo sapiens, UniProt P20701); construct: Recombinant LFA-1 (100 μL of 0.7 μg/ml mL, ICOS Corporation) in D-PBS; purchased ICOS Corporation; assay: ICAM-1/LFA-1 Biochemical Interaction Assay; assay type: binding; conditions: 4 μM compound; recombinant LFA-1, biotinylated ICAM-1/Ig
Sequence (P20701 26-1170): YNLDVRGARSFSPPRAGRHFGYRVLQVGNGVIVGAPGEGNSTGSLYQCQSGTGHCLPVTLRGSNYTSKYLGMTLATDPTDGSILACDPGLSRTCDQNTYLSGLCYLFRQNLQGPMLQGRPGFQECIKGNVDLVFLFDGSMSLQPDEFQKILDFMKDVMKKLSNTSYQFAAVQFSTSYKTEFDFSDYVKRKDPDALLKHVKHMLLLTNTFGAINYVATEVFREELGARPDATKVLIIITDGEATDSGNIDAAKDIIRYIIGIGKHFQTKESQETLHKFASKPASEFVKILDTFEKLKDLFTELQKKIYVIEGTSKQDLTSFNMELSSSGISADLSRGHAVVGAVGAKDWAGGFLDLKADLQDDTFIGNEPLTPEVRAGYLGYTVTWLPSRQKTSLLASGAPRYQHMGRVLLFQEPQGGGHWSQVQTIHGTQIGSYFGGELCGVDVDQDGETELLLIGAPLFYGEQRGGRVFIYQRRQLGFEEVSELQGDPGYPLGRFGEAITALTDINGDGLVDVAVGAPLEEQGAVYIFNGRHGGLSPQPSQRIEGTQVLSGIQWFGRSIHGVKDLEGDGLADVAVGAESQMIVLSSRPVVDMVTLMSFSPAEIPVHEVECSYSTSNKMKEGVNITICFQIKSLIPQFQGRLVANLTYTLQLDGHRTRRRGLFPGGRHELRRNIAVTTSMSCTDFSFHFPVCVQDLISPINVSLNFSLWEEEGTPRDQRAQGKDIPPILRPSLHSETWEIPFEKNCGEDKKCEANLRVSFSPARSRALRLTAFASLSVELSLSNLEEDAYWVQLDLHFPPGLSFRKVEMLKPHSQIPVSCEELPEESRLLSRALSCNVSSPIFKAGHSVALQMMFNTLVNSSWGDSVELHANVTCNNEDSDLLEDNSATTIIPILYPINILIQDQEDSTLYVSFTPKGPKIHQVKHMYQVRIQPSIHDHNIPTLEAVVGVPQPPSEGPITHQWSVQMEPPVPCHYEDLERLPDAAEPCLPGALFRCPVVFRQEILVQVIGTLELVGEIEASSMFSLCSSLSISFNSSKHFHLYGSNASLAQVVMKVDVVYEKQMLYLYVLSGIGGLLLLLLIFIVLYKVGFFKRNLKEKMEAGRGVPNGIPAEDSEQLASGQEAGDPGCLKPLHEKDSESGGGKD
Sequence (P05107 23-769 partner): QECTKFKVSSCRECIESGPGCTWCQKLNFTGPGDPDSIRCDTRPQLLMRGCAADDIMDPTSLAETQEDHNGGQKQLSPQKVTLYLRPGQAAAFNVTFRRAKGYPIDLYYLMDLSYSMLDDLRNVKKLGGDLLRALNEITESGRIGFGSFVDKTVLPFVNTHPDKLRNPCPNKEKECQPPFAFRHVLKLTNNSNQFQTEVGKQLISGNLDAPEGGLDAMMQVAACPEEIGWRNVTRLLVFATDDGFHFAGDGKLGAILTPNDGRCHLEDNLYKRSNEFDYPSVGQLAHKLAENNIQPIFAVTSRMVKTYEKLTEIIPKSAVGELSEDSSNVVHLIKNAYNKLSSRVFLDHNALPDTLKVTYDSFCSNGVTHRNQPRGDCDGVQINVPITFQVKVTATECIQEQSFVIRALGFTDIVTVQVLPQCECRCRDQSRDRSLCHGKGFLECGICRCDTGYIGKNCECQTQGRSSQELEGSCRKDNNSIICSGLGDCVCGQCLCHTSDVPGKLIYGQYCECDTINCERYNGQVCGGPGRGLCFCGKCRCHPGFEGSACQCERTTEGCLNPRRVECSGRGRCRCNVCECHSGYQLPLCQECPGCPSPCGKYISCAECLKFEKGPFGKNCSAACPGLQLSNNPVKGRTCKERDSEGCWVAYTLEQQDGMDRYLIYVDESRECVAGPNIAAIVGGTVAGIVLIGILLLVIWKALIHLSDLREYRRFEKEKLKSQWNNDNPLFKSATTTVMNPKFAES
Recorded endpoint: inhibition at 4 µM (%)
Numbers only, in %.

CC(=O)N1CCN(C(=O)/C=C/c2ccc(Sc3ccc(Cl)cc3Cl)c([N+](=O)[O-])c2)CC1 [Example 32] :: 92
CC(=O)N1CCN(C(=O)/C=C/c2ccc(Sc3ccc(Br)cc3)c([N+](=O)[O-])c2)CC1 [Example 35] :: 89
O=C(/C=C/c1ccccc1Sc1ccc(Cl)cc1Cl)NCCCCCCO [Example 1] :: 75

For each of the compounds below, note its inhibition at 4 µM.
1. CC(=O)N1CCN(C(=O)/C=C/c2ccc(Sc3ccc(C)cc3)c([N+](=O)[O-])c2)CC1 [Example 36]
2. CS(=O)(=O)N1CCN(C(=O)/C=C/c2ccc(Sc3ccc(Cl)cc3Cl)c([N+](=O)[O-])c2)CC1 [Example 39]
3. CC(=O)N1CCN(C(=O)/C=C/c2ccc(Sc3ccccc3CO)c([N+](=O)[O-])c2)CC1 [Example 48]

Result:
1. 90
2. 86
3. 89

For each of the compounds below, note its inhibition at 4 µM.
1. CC(=O)N1CCN(C(=O)/C=C/c2ccc(Sc3ccccc3C(C)(C)C)c([N+](=O)[O-])c2)CC1 [Example 51]
2. O=C(O)C1CCCN(C(=O)/C=C/c2ccc(Sc3ccc(Cl)cc3Cl)c(Cl)c2)C1 (centres unmarked) [Example 20]

Result:
[84, 82]

---

system: adherence of JY-8 cells (expressing LFA-1) to immobilized ICAM-1; assay: ICAM-1/JY-8 Cell Adhesion Assay; assay type: cell-based, human; conditions: Homo sapiens, JY-8, JY-8 cells on immobilized ICAM-1/Ig
Please provide measured pIC50 for the entries that follow.
Numbers only, as −log10 of the molar value.

Worked cases, pIC50 given:
CC(=O)N1CCN(C(=O)/C=C/c2ccc(Sc3ccc(C)cc3)c([N+](=O)[O-])c2)CC1 :: 6.49
CN1CCN(C(=O)/C=C/c2ccc(Sc3ccc(Cl)cc3Cl)c(Cl)c2)CC1 :: 5.54
CC(=O)N1CCN(C(=O)/C=C/c2ccc(Sc3ccccc3N)c([N+](=O)[O-])c2)CC1 :: 6.43

Read the next record carefully.
Query: Recorded pIC50 of O=C(/C=C/c1ccccc1Sc1ccc(Cl)cc1Cl)NCCCn1ccnc1 , please.
Result: 4.89

---

test system: adherence of JY-8 cells (expressing LFA-1) to immobilized ICAM-1; experiment: ICAM-1/JY-8 Cell Adhesion Assay; format: cell-based, human; conditions: Homo sapiens, JY-8, JY-8 cells on immobilized ICAM-1/Ig
Recorded endpoint: pIC50
Give bare numbers, as −log10 of the molar value.

CC(=O)N1CCN(C(=O)/C=C/c2ccc(Sc3ccc(Cl)cc3Cl)c(Cl)c2)CC1 [Example 9] :: 6.89
O=C(O)CN1CCN(C(=O)/C=C/c2ccc(Sc3ccc(Cl)cc3Cl)c([N+](=O)[O-])c2)CC1 [Example 44] :: 7.15
CC(=O)N1CCN(C(=O)/C=C/c2ccc(Sc3ccccc3C)c([N+](=O)[O-])c2)CC1 [Example 45] :: 7.30

Read the next record carefully.
Query: What reported pIC50 corresponds to CC(C)(C)OC(=O)CN1CCN(C(=O)/C=C/c2ccc(Sc3ccc(Cl)cc3Cl)c([N+](=O)[O-])c2)CC1 [Example 42] on adherence of JY-8 cells (expressing LFA-1) to immobilized ICAM-1?
Result: 6.28

---

target: interaction between the integrin LFA-1 and its adhesion partner ICAM-1 (Homo sapiens); construct: Recombinant LFA-1 (100 μL of 0.7 μg/ml mL, ICOS Corporation) in D-PBS; purchased ICOS Corporation; experiment: ICAM-1/LFA-1 Biochemical Interaction Assay; format: binding; settings: 4 μM compound; recombinant LFA-1, biotinylated ICAM-1/Ig
Parameter threshold = 90%. Response is Criterion met when inhibition at 4 µM meets or exceeds it, else Criterion not met.

Record excerpt, results attached:
CC(=O)N1CCN(C(=O)/C=C/c2ccc(Sc3ccc(Cl)cc3Cl)c(Cl)c2)CC1 [Example 9] :: Criterion met
Cc1ccccc1Sc1ccc(/C=C/C(=O)NCCCN2CCCC2=O)cc1C(F)(F)F [Example 30] :: Criterion met
CC(=O)N1CCN(C(=O)/C=C/c2ccc(Sc3c(Cl)cccc3C=O)c(Cl)c2)CC1 [Example 65] :: Criterion not met
O=C(/C=C/c1ccc(Sc2ccc(Cl)cc2Cl)c(Br)c1)NCCCN1CCCC1=O [Example 63] :: Criterion not met
CN1CCN(C(=O)/C=C/c2ccc(Sc3ccc(Cl)cc3Cl)c(Cl)c2)CC1 [Example 8] :: Criterion not met
CCc1ccccc1Sc1ccc(/C=C/C(=O)N2CCN(C(C)=O)CC2)cc1[N+](=O)[O-] [Example 49] :: Criterion met
CCN(CC)C(=O)N1CCN(C(=O)/C=C/c2ccc(Sc3ccc(Cl)cc3Cl)c([N+](=O)[O-])c2)CC1 [Example 41] :: Criterion not met
CC(=O)N1CCN(C(=O)/C=C/c2ccc(Sc3ccccc3Cl)c([N+](=O)[O-])c2)CC1 [Example 46] :: Criterion not met

Query: Does Cc1ccccc1Sc1ccc(/C=C/C(=O)N2CCN(c3ccccc3)CC2)cc1C(F)(F)F [Example 29] have a reported inhibition at 4 µM of at least 90%?
Result: Criterion not met

Query: Try this compound next: O=C(O)C(=O)N1CCN(C(=O)/C=C/c2ccc(Sc3ccc(Cl)cc3Cl)c([N+](=O)[O-])c2)CC1 [Example 43]
Result: Criterion not met

Query: Try this compound next: O=C(O)C1CCN(C(=O)/C=C/c2ccc(Sc3ccc(Cl)cc3Cl)c(Cl)c2)CC1 [Example 21]
Result: Criterion not met

Query: Try this compound next: CC(=O)N1CCN(C(=O)/C=C/c2ccc(Sc3ccccc3N)c([N+](=O)[O-])c2)CC1 [Example 47]
Result: Criterion not met

Query: Try this compound next: O=C(/C=C/c1ccc(Sc2ccc(Cl)cc2Cl)c(Cl)c1)N(CCO)CCO [Example 5]
Result: Criterion not met
